Exercise: state measured Dmax at 3 µM for each of the compounds provided.
target_desc: MycN (Homo sapiens, UniProt P04198)
Construct: endogenous in cells; host or cells: SK-N-BE(2)
assay_procedure: Degradation of MycN protein in SK-N-BE(2) cells, JESS/Western blot of lysates
Assay type: cell-based
assay_setup: SKNBE2, 24 h, SKNBE2 cells, 24 h, 3 μM; read-out: % Degradation of MycN (SKNBE2) 24 h, 3 μM

Take a look at these entries with their results.
NC[C@@H]1CCCN(c2nccc(Nc3cc(C4CC4)[nH]n3)n2)C1; 80 to 100%
CN(C)C[C@@H]1CCN(c2nccc(Nc3cc(C4CC4)[nH]n3)n2)C1 (stereo in doubt); 50 to 79%

Required: Dmax at 3 µM, one value per compound below.
1. CN[C@H]1CCN(c2nccc(Nc3cc(C4CC4)[nH]n3)n2)C1
2. CNC[C@@H]1CN(c2nccc(Nc3cc(C4CCCC4)[nH]n3)n2)CCO1
3. CN1CC2(CCN(c3nccc(Nc4cc(C5CC5)[nH]n4)n3)C2)C1
4. CC1(NCC23CC(C2)N(c2nccc(Nc4cc(C5CCCC5)[nH]n4)n2)C3)COC1
5. c1cc(Nc2cc(C3CC3)[nH]n2)nc(N2CCC3(CCNC3)C2)n1 (centres unmarked)

Reply |
["< 20%", "< 20%", "< 20%", "80 to 100%", "50 to 79%"]

Ask | Any idea what Dmax at 3 µM was measured for "NC[C@H]1CCN(c2nccc(Nc3cc(C4CC4)[nH]n3)n2)C1" ?
Reply | 80 to 100%

---

target_desc: MycC (Homo sapiens, UniProt P01106)
Construct: endogenous in cells; host or cells: L363
Sequence (P01106 whole entry): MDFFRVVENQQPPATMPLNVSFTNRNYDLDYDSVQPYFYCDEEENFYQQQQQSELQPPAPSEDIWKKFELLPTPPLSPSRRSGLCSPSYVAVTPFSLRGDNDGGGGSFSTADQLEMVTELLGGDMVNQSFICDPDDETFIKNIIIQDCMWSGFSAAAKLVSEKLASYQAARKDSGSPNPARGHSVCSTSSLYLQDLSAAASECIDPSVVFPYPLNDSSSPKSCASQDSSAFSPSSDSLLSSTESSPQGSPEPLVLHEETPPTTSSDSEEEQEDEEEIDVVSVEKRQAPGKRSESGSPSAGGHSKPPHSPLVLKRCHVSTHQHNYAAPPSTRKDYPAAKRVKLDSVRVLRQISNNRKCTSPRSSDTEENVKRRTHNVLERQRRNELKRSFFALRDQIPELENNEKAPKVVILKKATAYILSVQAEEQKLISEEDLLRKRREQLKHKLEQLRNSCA
assay_procedure: Degradation of MycC protein in L363 cells, JESS/Western blot of lysates
Format: cell-based
assay_setup: L-363, 24 h, L-363 cells, 24 h, 1 μM; read-out: % Degradation of MycC (L-363) 24 h, 1 μM
property_label: Dmax at 1 µM

Take a look at these entries with their results.
NCC1CN(c2nccc(Nc3cc(C4CCCC4)[nH]n3)n2)CC1(F)F (centres unmarked); 20 to 49%
CNCCCN(C)c1nccc(Nc2cc(C3CC3)[nH]n2)n1; 20 to 49%
CNC[C@@H]1CN(c2nccc(Nc3cc(C4CCCC4)[nH]n3)n2)CCO1; < 20%
c1cc(Nc2cc(C3CC3)[nH]n2)nc(N2CC(C3CNC3)C2)n1; < 20%

Moving on to the next molecule.
Ask | Any idea what Dmax at 1 µM was measured for "COC1CN(CC23CC(C2)N(c2nccc(Nc4cc(C5CCCC5)[nH]n4)n2)C3)C1" ?
Reply | 20 to 49%

---

target_desc: MycC (Homo sapiens)
Construct: endogenous in cells; host or cells: L363
assay_procedure: Degradation of MycC protein in L363 cells, JESS/Western blot of lysates
Assay type: cell-based
assay_setup: L-363, 24 h, L-363 cells, 24 h, 6 μM; read-out: % Degradation of MycC (L-363) 24 h, 6 μM
property_label: Dmax at 6 µM

NC[C@@H]1CN(c2nccc(Nc3cc(C4CCCC4)[nH]n3)n2)CCO1; 80 to 100%
c1cc(Nc2cc(C3CC3)[nH]n2)nc(N2CCC3(CNC3)C2)n1; 20 to 49%
NC[C@@H]1CN(c2nccc(Nc3cc(C4CC4)[nH]n3)n2)C[C@@H]1F; 80 to 100%
NCC1CCN(c2nccc(Nc3cc(C4CC4)[nH]n3)n2)CC1; 20 to 49%
COC1CN(CC23CC(C2)N(c2nccc(Nc4cc(C5CCCC5)[nH]n4)n2)C3)C1; 80 to 100%

Required: Dmax at 6 µM, one value per compound below.
1. CNCC12CC(C1)N(c1nc3c(c(Nc4cc(C5CCCC5)[nH]n4)n1)CCC3)C2
2. CNC[C@@H]1CCN(c2nccc(Nc3cc(C4CC4)[nH]n3)n2)C1
3. CNC[C@H]1CN(c2nccc(Nc3cc(C4CC4)[nH]n3)n2)C[C@H]1F

Reply |
80 to 100%
20 to 49%
80 to 100%

---

target_desc: MycN (Homo sapiens)
Construct: endogenous in cells; host or cells: SK-N-BE(2)
assay_procedure: Degradation of MycN protein in SK-N-BE(2) cells, JESS/Western blot of lysates
Format: cell-based
assay_setup: SKNBE2, 24 h, SKNBE2 cells, 24 h, 3 μM; read-out: % Degradation of MycN (SKNBE2) 24 h, 3 μM
Exercise: state measured Dmax at 3 µM for each of the compounds provided.

Take a look at these entries with their results.
CNC[C@H]1CCCN(c2nccc(Nc3cc(C4CC4)[nH]n3)n2)C1; 80 to 100%
CS(=O)(=O)CCCNCC12CC(C1)N(c1nccc(Nc3cc(C4CCCC4)[nH]n3)n1)C2; 50 to 79%
CN1CC2(C1)CN(c1nccc(Nc3cc(C4CC4)[nH]n3)n1)C2; 20 to 49%

Ask | Any idea what Dmax at 3 µM was measured for "CN1CC2(CCN(c3nccc(Nc4cc(C5CCCC5)[nH]n4)n3)CC2)C1" ?
Reply | 80 to 100%

---

target_desc: MycN (Homo sapiens)
Construct: endogenous in cells; host or cells: SK-N-BE(2)
Sequence (P04198 1-464): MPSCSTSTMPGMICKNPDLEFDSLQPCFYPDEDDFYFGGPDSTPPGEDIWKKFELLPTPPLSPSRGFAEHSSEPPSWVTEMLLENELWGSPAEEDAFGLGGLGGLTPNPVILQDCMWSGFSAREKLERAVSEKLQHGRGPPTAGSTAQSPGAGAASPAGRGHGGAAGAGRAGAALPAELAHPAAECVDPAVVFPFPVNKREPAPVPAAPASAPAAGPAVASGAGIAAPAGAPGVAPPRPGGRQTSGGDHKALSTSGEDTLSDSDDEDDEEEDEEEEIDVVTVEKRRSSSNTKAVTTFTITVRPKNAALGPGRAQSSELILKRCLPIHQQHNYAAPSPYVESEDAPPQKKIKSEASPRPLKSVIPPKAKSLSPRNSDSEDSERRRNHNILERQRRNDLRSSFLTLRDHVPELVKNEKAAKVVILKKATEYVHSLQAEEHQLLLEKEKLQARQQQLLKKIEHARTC
assay_procedure: Degradation of MycN protein in SK-N-BE(2) cells, JESS/Western blot of lysates
Type: cell-based
assay_setup: SKNBE2, 24 h, SKNBE2 cells, 24 h, 3 μM; read-out: % Degradation of MycN (SKNBE2) 24 h, 3 μM
Exercise: state measured Dmax at 3 µM for each of the compounds provided.

NCC12CC(C1)N(c1nccc(Nc3cc(C4CCCC4)[nH]n3)n1)C2 [Compound 66]; 80 to 100%
c1cc(Nc2cc(C3CCCC3)[nH]n2)nc(N2CCC(C3CNC3)C2)n1 (centres unmarked) [Compound 28]; 80 to 100%
NC[C@@H]1CN(c2nccc(Nc3cc(C4CC4)[nH]n3)n2)C[C@@H]1F [Compound 122-1]; 20 to 49%
NC[C@H]1CN(c2nccc(Nc3cc(C4CCCC4)[nH]n3)n2)CCO1 [Compound 187]; 20 to 49%

Ask | Any idea what Dmax at 3 µM was measured for NC[C@H]1CCCN(c2nccc(Nc3cc(C4CC4)[nH]n3)n2)C1 [Compound 29] ?
Reply | 80 to 100%

---

target_desc: MycN (Homo sapiens)
Construct: endogenous in cells; host or cells: SK-N-BE(2)
Sequence (P04198 1-464): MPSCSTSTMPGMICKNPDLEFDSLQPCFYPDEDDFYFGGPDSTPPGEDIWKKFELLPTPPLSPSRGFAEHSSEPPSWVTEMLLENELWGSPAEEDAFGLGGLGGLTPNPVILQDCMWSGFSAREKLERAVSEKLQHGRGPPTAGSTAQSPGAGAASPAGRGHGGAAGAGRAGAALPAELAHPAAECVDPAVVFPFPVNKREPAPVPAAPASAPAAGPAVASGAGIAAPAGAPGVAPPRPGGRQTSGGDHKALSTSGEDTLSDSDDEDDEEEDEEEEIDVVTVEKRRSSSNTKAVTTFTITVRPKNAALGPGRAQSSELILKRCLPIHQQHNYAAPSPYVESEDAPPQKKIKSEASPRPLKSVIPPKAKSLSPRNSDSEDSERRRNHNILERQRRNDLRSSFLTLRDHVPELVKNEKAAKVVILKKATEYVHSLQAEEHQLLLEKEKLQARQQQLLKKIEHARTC
assay_procedure: Degradation of MycN protein in SK-N-BE(2) cells, JESS/Western blot of lysates
Format: cell-based
assay_setup: SKNBE2, 24 h, SKNBE2 cells, 24 h, 0.5 μM; read-out: % Degradation of MycN (SKNBE2) 24 h, 0.5 μM
property_label: Dmax at 0.5 µM

CNC[C@H]1CN(c2nccc(Nc3cc(C4CCCC4)[nH]n3)n2)CCO1; 20 to 49%
NCC12CCC(C1)N(c1nccc(Nc3cc(C4CC4)[nH]n3)n1)C2 (stereo not drawn); 80 to 100%
NC[C@H]1CCCN(c2nccc(Nc3cc(C4CC4)[nH]n3)n2)C1; 80 to 100%
CN1CC(C2CN(c3nccc(Nc4cc(C5CCCC5)[nH]n4)n3)C2)C1; < 20%
NC[C@@H]1CCN(c2nccc(Nc3cc(C4CCCC4)[nH]n3)n2)C1; 20 to 49%

Required: Dmax at 0.5 µM, one value per compound below.
1. CN1CC2(CCCN(c3nccc(Nc4cc(C5CCCC5)[nH]n4)n3)C2)C1
2. CNC[C@H]1CN(c2nccc(Nc3cc(C4CCCC4)[nH]n3)n2)C[C@H]1F

Reply |
1. < 20%
2. < 20%

Origin of measurements: patent US20250170130A1
